Biological target: T1, HCV bt-141-161 (Peptide 2, HCVc 141-161) (Hepatitis C virus (numbering per HCV-1), biotin (carboxy-terminal per; N-terminal per))
T1 peptide: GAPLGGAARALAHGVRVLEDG
Experiment: EIA, captured mAb + biotin peptide
Endpoint: Reactivity (OD 492 nm) (OD units)
# output: bare number, implied unit OD units

Data point: HCV 208B-515 (antibody, V domains shown) VH: QVQLQQPGAELVKPGASLKLSCRASGYTFTSYWIHWVKQRPGQGLEWIGEIDPSDSYTNYNQKFKGKATLTVDKSSRAAYMQLSSLTSEDSAVYYCARHYYGVFDSWGQGTKLTVSS VL: QIVFTQYPAIMSASLGERVTMTCTASSSVTSSYLHWFQQKPGSSPKLWIYSTSNPGSGVPARFSGRGSGTSYSLSISSMEAEDAATYYCLQFHRSPWTFGGGTKLEIRR ; Reactivity (OD 492 nm) = 0.13

Lab note: measured Reactivity (OD 492 nm) of HCV 208B-547 (antibody, V domains shown) VH: QVQLQQSGAELAKPGASVKMSCKASGYTFTSNKMHWAKQRPGQGLEWIGYIDPSSGYTEYNQKIKDKATLTADKSSSTAYMQLSSLTSEDSAVYYCTNFAYWGQGTLVTVSA VL: EVVLTQSPAITAASLGQKVTITCRASSSVSYMHWYRQKSGTSPQPWIYEISTLASGVPTRFRASGSGTSYSLTISSMEAEDAAIYYCQQWNYPLTFGAGTKLELKR was 0.08
